B1: glmS ribozyme (parent)
chain: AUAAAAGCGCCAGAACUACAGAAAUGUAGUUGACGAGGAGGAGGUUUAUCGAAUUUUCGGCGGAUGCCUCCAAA

variants of: B1; assay: kcat; higher = faster cleavage; RNA array; details: with glucosamine-6-phosphate
This sample holds only a part of the variants without activity.
Group membership follows kcat per the scheme 1 = under 0.0001 s⁻¹, 2 = from 0.0001 s⁻¹ up to 0.0006 s⁻¹, 3 = 0.0006 s⁻¹ and over

# MUTATION ID, GROUP
records = [
    ("U31A C50A G51U A53G", 1),
    ("A42U A48U A64U C68U", 1),
    ("G35U C70U", 1),
    ("A15U G44U U47G C67G", 2),
    ("A39C A48C", 1),
    ("A48U U54C", 2),
    ("G66C C71A", 2),
    ("U55A G59A", 1),
    ("G32U A53G", 3),
    ("U54G G66U", 3),
    ("G13C G40C", 1),
    ("U49G C68G", 1),
    ("A14G A48U", 3),
    ("A6C C71A", 1),
    ("A6C C10U C67G U69A", 1),
    ("G13A U47G", 2),
    ("G40U G66C", 2),
    ("A15C C71G", 2),
    ("A12G G40A", 3),
    ("U31C A39G", 3),
    ("A12G A53G", 3),
    ("C19A G40C", 3),
]
